# Test system: HeLa cells
# experiment notes: alamarBlue cell growth assay, siRNA transfection with or without 25 nM KSPi
# Assay type: cell-based, human
# conditions: Homo sapiens, 72 h; HeLa cells, three-day Alamar Blue assay
pEC50: −log10 of the molar value.
metric name: pEC50

What value of measured pEC50 is listed for `CC(C)[C@H](N)C(=O)N1CC(c2cc(F)ccc2F)=C[C@H]1c1ccccc1` ?
~7.10

====

# Test system: TP53-negative A549 cells
# experiment notes: Alamar Blue cell growth, cisplatin after siRNA supertransfection, TP53-negative cells (FIG. 20)
# Type: cell-based, human
# conditions: cells transfected with control siRNA (luciferase)
metric name: IC50

What value of measured IC50 is listed for N.N.[Cl][Pt][Cl] [cisplatin, cis-Diaminedichloroplatinum] ?
~1 nM

Where do the numbers come from? From patent US20050181385A1.
